# system: T1, human CD137-Fc (human, biotin-labeled)
# T1 construct: if 90 already holds the Fc, drop the second piece; also called biotin-labeled human CD137 fused to human IgG1 Fc fragment; biotin-human CD137-Fc; not shown: human IgG1 Fc fragment
# T1 sequence (chain, as listed by the source): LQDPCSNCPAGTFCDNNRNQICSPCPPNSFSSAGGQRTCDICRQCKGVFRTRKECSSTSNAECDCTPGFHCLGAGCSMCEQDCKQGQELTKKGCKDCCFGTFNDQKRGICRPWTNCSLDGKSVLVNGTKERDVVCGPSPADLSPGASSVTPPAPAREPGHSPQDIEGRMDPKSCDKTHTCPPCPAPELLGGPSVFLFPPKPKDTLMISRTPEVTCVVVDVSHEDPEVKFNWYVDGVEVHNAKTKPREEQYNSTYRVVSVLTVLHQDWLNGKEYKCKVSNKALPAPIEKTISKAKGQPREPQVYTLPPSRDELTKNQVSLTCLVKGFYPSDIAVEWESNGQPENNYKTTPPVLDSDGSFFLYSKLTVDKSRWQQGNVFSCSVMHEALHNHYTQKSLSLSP
# method: bead ELISA, IgG on biotinylated antigen, luminescence;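 note: biotinylated antigen captured on streptavidin magnetic beads, then incubated with purified IgG at 50 ng/µL for 1 h at room temperature before detection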
readout-label: RLU (RLU)
Field format: number, assumed RLU, no unit text.

Examples from the recorded data:
INSERT INTO assay_data (binder, measured) VALUES
  ('DXDU01_3#072 (antibody, V domains shown, Human IgG1; light chain GLS3000 (kappa); also called dBBDu122) VH: QVQLVESGGGLVQPGRSLRLSCAASGFTFSNAWMHWVRQAPGKGLEWVAQIKDRSQLYAAYYAPSVKGRFTISRDDSKNSIYLQMNSLKTEDTAVYYCHYVHYASASTVLGAYGVDAWGQGTTVTVSS VL: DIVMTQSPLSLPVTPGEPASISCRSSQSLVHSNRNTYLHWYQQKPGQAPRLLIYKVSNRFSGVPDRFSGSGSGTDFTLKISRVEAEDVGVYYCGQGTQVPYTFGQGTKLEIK', 14100),
  ('DADU01_3#002 (antibody, V domains shown, Human IgG1; light chain GLS3000 (kappa); also called dBBDu124) VH: QVQLVESGGGLVQPGRSLRLSCAASGFTFSNAWMHWVRQAPGKGLEWVAQIKDKQNLYNAYYAESVKGRFTISRDDSKNSIYLQMNSLKTEDTAVYYCHYVHYASASTVLPAFGVDAWGQGTTVTVSS VL: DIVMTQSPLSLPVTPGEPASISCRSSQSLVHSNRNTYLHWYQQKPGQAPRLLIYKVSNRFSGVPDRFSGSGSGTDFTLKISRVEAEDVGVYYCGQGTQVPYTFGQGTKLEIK', 39100);

Req: Name the recorded RLU of the binder listed here: DXDU01_3#051 (antibody, V domains shown, Human IgG1; light chain GLS3000 (kappa); also called dBBDu127) VH: QVQLVESGGGLVQPGRSLRLSCAASGFTFSNAWMHWVRQAPGKGLEWVAQIKDRGQQYNAYYAPSVKGRFTISRDDSKNSIYLQMNSLKTEDTAVYYCHYVHYASASSVLPGYGVDAWGQGTTVTVSS VL: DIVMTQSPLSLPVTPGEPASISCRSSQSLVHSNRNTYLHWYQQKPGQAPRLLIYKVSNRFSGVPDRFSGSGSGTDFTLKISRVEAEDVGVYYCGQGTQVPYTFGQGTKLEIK
Resp: 38100
